Each recorded value in this set is attributed to the SangsterLogP compilation.

Mark each entry 1 if its logP sits below 2, and 0 for all others.

[[record]]
molecule = "CCOC(=O)c1cc(C#N)c(S(C)=O)s1 (stereo not given)"
label_class = 0

[[record]]
molecule = "CC(=O)c1sc(S(C)=O)c(-c2ccc(Cl)cc2)c1N (stereo not given)"
label_class = 0

[[record]]
molecule = "CCCS(=O)c1sccc1[N+](=O)[O-] (stereo not given)"
label_class = 0

[[record]]
molecule = "CCS(=O)c1ccc(C(C)=O)s1 (stereo not given)"
label_class = 1

[[record]]
molecule = "CCS(=O)c1sc(Cl)cc1C#N (stereo not given)"
label_class = 0

[[record]]
molecule = "CCS(=O)c1sc(C#N)cc1C#N (stereo not given)"
label_class = 1

[[record]]
molecule = "CS(=O)c1ccc([N+](=O)[O-])s1 (stereo not given)"
label_class = 1

[[record]]
molecule = "CCS(=O)c1sc(C(C)=O)c(N)c1C#N (stereo not given)"
label_class = 1

[[record]]
molecule = "CCS(=O)c1sccc1[N+](=O)[O-] (stereo not given)"
label_class = 0

[[record]]
molecule = "CS(=O)c1cccs1 (stereo not given)"
label_class = 1

[[record]]
molecule = "CCS(=O)c1sc(C(C)=O)c(Cl)c1C#N (stereo not given)"
label_class = 0

[[record]]
molecule = "CS(=O)c1sccc1[N+](=O)[O-] (stereo not given)"
label_class = 1

[[record]]
molecule = "CS(=O)c1sc(C#N)cc1C#N (stereo not given)"
label_class = 1

[[record]]
molecule = "CS(=O)c1sccc1C#N (stereo not given)"
label_class = 1

[[record]]
molecule = "CS(=O)c1sc(C#N)c(Cl)c1C#N (stereo not given)"
label_class = 0

[[record]]
molecule = "CCCS(=O)c1sc(C#N)cc1C#N (stereo not given)"
label_class = 0

[[record]]
molecule = "CCCCS(=O)c1sc(C#N)cc1C#N (stereo not given)"
label_class = 0

[[record]]
molecule = "CCS(=O)c1sc(C#N)c(C)c1C(C)=O (stereo not given)"
label_class = 0

[[record]]
molecule = "CS(=O)c1ccsc1 (stereo not given)"
label_class = 1

[[record]]
molecule = "CCS(=O)c1sc(C#N)c(OC)c1C#N (stereo not given)"
label_class = 0

[[record]]
molecule = "CC(=O)c1sc(S(C)=O)c(-c2ccc(Cl)cc2)c1C (stereo not given)"
label_class = 0

[[record]]
molecule = "CS(=O)c1sccc1Br (stereo not given)"
label_class = 1

[[record]]
molecule = "CC(=O)c1sc(S(C)=O)c(C#N)c1-c1ccc(Cl)cc1 (stereo not given)"
label_class = 0

[[record]]
molecule = "CCS(=O)c1sc(C(C)=O)c(C)c1C#N (stereo not given)"
label_class = 0


----------
Recorded measurements of logP, one per entry
Assay metric: logP

[[record]]
molecule = "Cc1c(C#N)sc(S(C)(=O)=O)c1-c1ccc(Cl)cc1"
reported = 3.8

[[record]]
molecule = "CCCS(=O)c1sc(C#N)c(Cl)c1C#N (configuration not stated)"
reported = 2.95

[[record]]
molecule = "CS(=O)c1scc(-c2ccccc2)c1[N+](=O)[O-] (configuration not stated)"
reported = 3.2

[[record]]
molecule = "CCCCS(=O)c1sc(C#N)c(Cl)c1C#N (configuration not stated)"
reported = 3.44

[[record]]
molecule = "CCS(=O)c1sc(C(C)=O)c(C)c1[N+](=O)[O-] (configuration not stated)"
reported = 2.81

[[record]]
molecule = "Cc1csc(S(C)=O)c1[N+](=O)[O-] (configuration not stated)"
reported = 2.19

[[record]]
molecule = "Cc1sc(S(C)=O)c([N+](=O)[O-])c1C (configuration not stated)"
reported = 2.65

